Test system: FXR:RXRa (NR concentration 270 nM, RXRa partner concentration 90 nM)
protocol: PBM binding z-score (relative to random genomic background probes); higher = stronger binding; sequences stand for … in GC…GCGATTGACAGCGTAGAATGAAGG
endpoint: PBM binding z-score
# answer = number (no unit)

biosequence=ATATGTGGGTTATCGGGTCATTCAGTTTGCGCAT test_target="FXR:RXRa (NR concentration 270 nM, RXRa partner concentration 90 nM)" recorded_measurement=3.03
biosequence=CCGAGTAGGTTACGAGGGGGCAATCAGTGCGAAT test_target="FXR:RXRa (NR concentration 270 nM, RXRa partner concentration 90 nM)" recorded_measurement=2.55
biosequence=TCGAGTAGGTTACGGGAGCATTCAGGGATGAAGA test_target="FXR:RXRa (NR concentration 270 nM, RXRa partner concentration 90 nM)" recorded_measurement=0.293
biosequence=CAGCCTAGGTGAGGGCCAGTATAGGAGGAACGTT test_target="FXR:RXRa (NR concentration 270 nM, RXRa partner concentration 90 nM)" recorded_measurement=-0.516
biosequence=ACTCGGAGGACAAAGGTAAGAGCTACGCCAGTGA test_target="FXR:RXRa (NR concentration 270 nM, RXRa partner concentration 90 nM)" recorded_measurement=-0.107

Note: attention shifts to another entry.
For this sequence ( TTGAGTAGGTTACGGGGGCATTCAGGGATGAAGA ), measured PBM binding z-score is 3.06

====

Tested on: PPARa:RXRa (NR concentration 270 nM, RXRa partner concentration 90 nM)
protocol: PBM binding z-score (relative to random genomic background probes); higher = stronger binding; sequences stand for … in GC…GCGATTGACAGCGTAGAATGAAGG
endpoint: PBM binding z-score
The answer should be written as a number, with no unit following it.

Examples with answers:
biosequence=AGTCGGAGGACAAAGGTCAGAGCTACGCCAGTGA recorded_measurement=5.01
biosequence=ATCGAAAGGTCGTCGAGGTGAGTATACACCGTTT recorded_measurement=4.87

Next up:
The sequence GATTCAGGGTCAGCTAGAGGCCAGAGTATGGAAA , when measured on PPARa:RXRa (NR concentration 270 nM, RXRa partner concentration 90 nM), yielded PBM binding z-score of 5.13

====

Recorded measurements of PBM binding z-score, one per entry
Test system: PPARg homodimer (NR concentration 180 nM)
protocol: PBM binding z-score (relative to random genomic background probes); higher = stronger binding; sequences stand for … in GC…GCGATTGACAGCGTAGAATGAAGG
Just the number, please, no unit after it.

biosequence=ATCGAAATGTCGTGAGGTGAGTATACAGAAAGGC recorded_measurement=-0.35
biosequence=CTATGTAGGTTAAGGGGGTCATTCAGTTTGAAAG recorded_measurement=3.66
biosequence=CCTTACGGGTCAAGGTAATAGCACGGGTGGTACG recorded_measurement=1.93
biosequence=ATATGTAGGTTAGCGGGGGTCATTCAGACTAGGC recorded_measurement=3.57
biosequence=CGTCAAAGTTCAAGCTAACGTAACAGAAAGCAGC recorded_measurement=3.13

Form: sequence = ACTATCAGGCCAAGGGTCACTCAAGATTAGTCCG ; PBM binding z-score = 3.28

For record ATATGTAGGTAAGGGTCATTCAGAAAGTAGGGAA the listed PBM binding z-score is 3.52

Summary for this sequence, ACTAGAAGGCCAAGGGTCACTCAAGATTAGTCCG : PBM binding z-score is 5

Measured PBM binding z-score of CCTAGTAGGTTATGGGGCATTCAGGCAACGGTGA : 1.28
